Biological target: Induced myeloid leukemia cell differentiation protein Mcl-1 (Homo sapiens)
Experiment: disruptors of Mcl-1 and Noxa BH3 peptide – biochemical, TR-FRET, 1536-well, primary screen (AID 1022);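 further: His-tagged Mcl-1 with rhodamine Noxa BH3 peptide and terbium anti-His antibody; 0% = Mcl-1 plus Noxa peptide wells and 100% = peptide-only wells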
Settings: TR-FRET Mcl-1/Noxa peptide binding, 2 h; at 21.7 µM; stronger effect = higher value
About 3,300 (1.5%) of roughly 220,000 compounds were called active. Shown is part of a subset that was picked to be rich in actives.
Class yes (1): inhibition at least 20%. Class no (0): inhibition below 20%.

INSERT INTO assay_data (item_smiles, label_class) VALUES
  ('O=c1[nH]c2ccccc2n2c(-c3ccccc3)nnc12', 'yes (1)'),
  ('O=[N+]([O-])c1cccc(-c2nnc3c4ccccc4c4ccccc4n23)c1', 'yes (1)'),
  ('COc1ccc(/C=N/Nc2nc3ccccc3o2)cc1OC', 'no (0)'),
  ('COc1ccc(S(=O)(=O)Nc2ccc(O)c(Sc3nc4ccccc4s3)c2)cc1', 'yes (1)'),
  ('COc1cc(/C=N/Nc2nn3cnnc3c3ccccc23)cc(OC)c1OC', 'yes (1)'),
  ('CCOC(=O)c1cnc2[nH]c3ccccc3n2c1=O', 'yes (1)'),
  ('CCOc1ccc(/C=N/Nc2nncc(-c3ccccc3)n2)cc1OC', 'no (0)'),
  ('Oc1ccccc1N1CCN(C(=S)NCc2ccccc2)CC1', 'no (0)');

###

Molecular target: Induced myeloid leukemia cell differentiation protein Mcl-1 (Homo sapiens)
Assay: disruptors of Mcl-1 and Noxa BH3 peptide – biochemical, TR-FRET, 1536-well, primary screen (AID 1022);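 further: His-tagged Mcl-1 with rhodamine Noxa BH3 peptide and terbium anti-His antibody; 0% = Mcl-1 plus Noxa peptide wells and 100% = peptide-only wells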
Conditions: TR-FRET Mcl-1/Noxa peptide binding, 2 h; at 21.7 µM; stronger effect = higher value
About 3,300 (1.5%) of roughly 220,000 compounds were called active. Shown is part of a subset that was picked to be rich in actives.
readout-name: inhibition (%)

INSERT INTO results (compound, readout_name, number) VALUES
  ('CN(C)CCCNC(=O)c1ccc2[nH]c3ccccc3c2c1', 'inhibition', 3.04),
  ('CC(C)Cc1nc(Cl)c(C#N)c2c1CCC2', 'inhibition', 1.09),
  ('Cc1ccc(C(=O)Cn2cc([N+](=O)[O-])nc2C)cc1', 'inhibition', -26.9),
  ('Cc1ccc(/C=N/NC(=O)CN2CCN(Cc3ccccc3)CC2)s1', 'inhibition', 14.9),
  ('COC(=O)c1cc(=O)n(-c2c(Cl)cc(C(F)(F)F)cc2Cl)[nH]1', 'inhibition', 3.78),
  ('CN(C)c1ccc(C(CNC(=O)c2ccc(F)cc2)c2c[nH]c3ccccc23)cc1 (stereo unspecified)', 'inhibition', 75.8),
  ('COc1cccc(C2Nc3cccc4cccc(c34)N2)c1', 'inhibition', 34.5),
  ('CC(C)(C)c1ccc(/C=C2\Oc3c(ccc(O)c3CN3CCN(CCO)CC3)C2=O)cc1', 'inhibition', 23.9),
  ('Cc1cc(C)c2c3c(sc2n1)C(c1ccccc1)C(C#N)=C(N)O3 (stereo unspecified)', 'inhibition', -16.3),
  ('COc1ccc2c(CN3CCN(S(=O)(=O)c4cccs4)CC3)cc(=O)oc2c1', 'inhibition', -3.37),
  ('C/C(=C\c1ccco1)C1Nc2cccc3cccc(c23)N1', 'inhibition', 74.9);

###

Target: Induced myeloid leukemia cell differentiation protein Mcl-1 (Homo sapiens)
Assay: disruptors of Mcl-1 and Noxa BH3 peptide – biochemical, TR-FRET, 1536-well, primary screen (AID 1022);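 further: His-tagged Mcl-1 with rhodamine Noxa BH3 peptide and terbium anti-His antibody; 0% = Mcl-1 plus Noxa peptide wells and 100% = peptide-only wells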
Settings: TR-FRET Mcl-1/Noxa peptide binding, 2 h; at 21.7 µM
About 3,300 (1.5%) of roughly 220,000 compounds were called active.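 The calls were made as follows: active = compounds that cut the protein-peptide binding signal by more than 50% relative to plate controls in a single-dose test; inactive = the rest.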 The entries come from a sample that favours actives as a whole.
Outcomes: active, inactive

INSERT INTO results (item_smiles, label_class) VALUES
  ('Cc1ccnc(N2CCC(C(=O)NC3CCCCCC3)CC2)n1', 'inactive'),
  ('CCOc1ccc(N=C2NC(=O)S/C2=C\c2ccc(O)cc2)cc1', 'active'),
  ('O=C(Nc1cccc2c1N(C(=O)c1ccco1)CCC2)c1ccco1', 'inactive'),
  ('O=C(N/N=C/c1ccc([N+](=O)[O-])cc1)c1c[nH]c2ccccc12', 'inactive'),
  ('COc1ccc(NC(=O)Nc2ccc3nc(C)c(C)nc3c2)cc1', 'inactive'),
  ('O=C(NCc1ccccn1)c1cc(-c2ccccc2Cl)on1', 'inactive'),
  ('CNc1nnc(-c2ccco2)s1', 'inactive'),
  ('Cc1ccc(OCC(=O)Nc2nnc(-c3ccco3)s2)cc1', 'inactive');

###

Biological target: Induced myeloid leukemia cell differentiation protein Mcl-1 (Homo sapiens) (UniProt Q07820)
Sequence (Q07820 whole entry, looked up): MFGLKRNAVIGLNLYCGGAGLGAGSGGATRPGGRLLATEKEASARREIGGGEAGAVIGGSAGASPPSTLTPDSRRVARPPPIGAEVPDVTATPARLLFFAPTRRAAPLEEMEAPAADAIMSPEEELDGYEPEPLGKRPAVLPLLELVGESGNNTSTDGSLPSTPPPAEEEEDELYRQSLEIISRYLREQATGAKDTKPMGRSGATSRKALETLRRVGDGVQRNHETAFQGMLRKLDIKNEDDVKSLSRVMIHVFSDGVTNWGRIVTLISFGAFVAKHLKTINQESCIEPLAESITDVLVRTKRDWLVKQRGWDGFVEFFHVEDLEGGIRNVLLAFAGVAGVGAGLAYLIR
Experiment: disruptors of Mcl-1 and Noxa BH3 peptide – biochemical, TR-FRET, 1536-well, primary screen (AID 1022);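 further: His-tagged Mcl-1 with rhodamine Noxa BH3 peptide and terbium anti-His antibody; 0% = Mcl-1 plus Noxa peptide wells and 100% = peptide-only wells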
Conditions: TR-FRET Mcl-1/Noxa peptide binding, 2 h; at 21.7 µM
Screen size: about 220,000 compounds; about 3,300 (1.5%) were called active.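 How the source made its calls: active means compounds that cut the protein-peptide binding signal by more than 50% relative to plate controls in a single-dose test; inactive means the rest.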 Only a selection was taken, and actives are over-represented in it overall.
Outcomes: T for active, F for inactive

INSERT INTO results (molecule, label_class) VALUES
  ('Cc1ccc(-c2n[nH]c(=S)n2/N=C/c2cc3c(cc2[N+](=O)[O-])OCO3)cc1', 'T'),
  ('CN=c1scc(-c2cc(OC)ccc2OC)n1/N=C/c1c(C)[nH]c2ccccc12', 'T'),
  ('O=S(=O)(/C=C/c1ccccc1)NCCc1ccccn1', 'T'),
  ('Cc1ccc(N2NC(=O)/C(=C/C=C/c3ccco3)C2=O)cc1C', 'F'),
  ('COCCn1nnnc1C(c1cc2ccc(OC)cc2[nH]c1=O)N1CCc2ccccc2C1 (centres undefined)', 'T'),
  ('COc1cc(C(=O)Nn2c(O)c(C3=c4ccccc4=NC3=O)sc2=S)ccc1O', 'T'),
  ('CCCN(CCC)CC(O)COc1ccccc1C(=O)Nc1ccccc1 (centres undefined)', 'F'),
  ('COC(=O)CC1=NN(c2ccccc2)C(=O)C1', 'F'),
  ('Cc1c([N+](=O)[O-])c(N)nn1C', 'F'),
  ('CCCCN(CC)CCCNC(=O)c1ccc(CSc2nc3ccncc3[nH]2)cc1', 'T'),
  ('Cc1nn(CC(=O)Nc2ccc(N(C)C)cc2)c(C)c1[N+](=O)[O-]', 'T'),
  ('CCOc1ccc(-c2n[nH]c(=S)n2/N=C/c2cc3c(cc2[N+](=O)[O-])OCO3)cc1', 'F'),
  ('NC(=O)[C@H]1CC2(CC(c3cccc(NC(=O)[C@H]4CCC(=O)N4)c3)=NO2)CN1C(=O)c1ccccc1C(=O)c1ccccc1 (some centres undefined)', 'F'),
  ('CC1CCN(Cc2nc(-c3ccc(Cl)cc3)no2)CC1', 'F'),
  ('CCN1CCN(C(c2cccnc2)c2cc(Cl)c3cccnc3c2O)CC1 (centres undefined)', 'F'),
  ('COc1ccc(-c2nc(CS(=O)CC(=O)N3CCc4ccccc4C3)c(C)o2)cc1 (centres undefined)', 'F'),
  ('CCOC(=O)N1CCN(C(c2cccnc2)c2ccc3cccnc3c2O)CC1 (centres undefined)', 'T'),
  ('CCn1c(-c2cc(OC)ccc2OC)csc1=Nc1c(C)n(C)n(-c2ccccc2)c1=O', 'F'),
  ('CN(C)S(=O)(=O)c1ccc(C(=O)NCC(C)(C)N2CCOCC2)cc1', 'F'),
  ('Cc1cc(C)cc(NC(=O)C2CCN(c3nc(C)cc(C)n3)CC2)c1', 'F'),
  ('COc1ccc(NC(=O)/C(C#N)=C\c2cc(OC)c(OCc3ccc(C(=O)O)cc3)cc2Br)cc1', 'T'),
  ('Cc1nn(CC(=O)Nc2ccc(C#N)cc2)c(C)c1[N+](=O)[O-]', 'F'),
  ('CCOC(=O)C1=NN(c2ccc(Cl)cc2)/C(=C/C2=NCCc3cc(OC)c(OC)cc32)S1', 'F'),
  ('O=C(CNC(=O)COc1ccccc1)NCCc1ccccn1', 'F'),
  ('Cc1ccc(-c2nc(CS(=O)CC(=O)NC3CCCC3)c(C)o2)cc1 (centres undefined)', 'F'),
  ('CN(C)c1nc(=Nc2cccc(Cl)c2)ss1', 'F'),
  ('Cc1ccccc1NC(=S)Nc1cccc([N+](=O)[O-])c1', 'F'),
  ('CCN(CC)CCCNC(=O)c1ccc2c(=O)n(Cc3ccc4c(c3)OCO4)c(=S)[nH]c2c1', 'F'),
  ('COC(=O)/C=C\C(=O)Nc1cccc([N+](=O)[O-])c1', 'T'),
  ('CCCN(CCC)S(=O)(=O)c1ccc(C(=O)NNC(=O)c2cc(OC)c(OC)c(OC)c2)cc1', 'F'),
  ('COc1ccc(CN2CCOC2=O)cc1OC', 'F'),
  ('C=CCn1c(SCC(=O)Nc2nc3ccccc3s2)nnc1-c1ccccc1O', 'F'),
  ('COc1cccc(OC)c1CN(C)C(=O)c1cnccc1C(F)(F)F', 'F'),
  ('c1ccc(C2=Nc3cccc4cccc(c34)N2)cc1', 'F');

The measurements presented in this section are drawn from PubChem BioAssay AID1022.
